From: the supplement of paper PMC11246515

# EXPERIMENT_SUMMARY: total protein half-life in vivo (active degradation + dilution); higher = more stable protein
# APPLIED_CONDITIONS: E. coli NCM3722 delta-lon; growth: N-lim chemostat; doubling time 6 h
VALUE_TYPE: total protein half-life in vivo (h)

chain=MLKLTDITWLYHHLPMRFSLTVERGEQVAILGPSGAGKSTLLNLIAGFLTPASGSLTIDGVDHTTMPPSRRPVSMLFQENNLFSHLTVAQNIGLGLNPGLKLNAVQQGKMHAIARQMGIDNLMARLPGELSGGQRQRVALARCLVREQPILLLDEPFSALDPALRQEMLTLVSTSCQQQKMTLLMVSHSVEDAARIATRSVVVADGRIAWQGMTNELLSGKASASALLGITG value_type="total protein half-life in vivo" unit_info=h recorded_value=5.79
chain=MNTPAQLSLPLYLPDDETFASFWPGDNSSLLAALQNVLRQEHSGYIYLWAREGAGRSHLLHAACAELSQRGDAVGYVPLDKRTWFVPEVLDGMEHLSLVCIDNIECIAGDELWEMAIFDLYNRILESGKTRLLITGDRPPRQLNLGLPDLASRLDWGQIYKLQPLSDEDKLQALQLRARLRGFELPEDVGRFLLKRLDREMRTLFMTLDQLDRASITAQRKLTIPFVKEILKL value_type="total protein half-life in vivo" unit_info=h recorded_value=4.21

---

Recorded total protein half-life in vivo values for a group of sequences are listed next.
# EXPERIMENT_SUMMARY: total protein half-life in vivo (active degradation + dilution); higher = more stable protein
# APPLIED_CONDITIONS: E. coli NCM3722 delta-lon; growth: N-lim chemostat; doubling time 6 h
VALUE_TYPE: total protein half-life in vivo

chain=MLCVKNVSLRLPESRLLTNVNFTVDKGDIVTLMGPSGCGKSTLFSWMIGALAEQFSCTGELWLNEQRIDILPTAQRQIGILFQDALLFDQFSVGQNLLLALPATLKGNARRNAVNDALERSGLEGAFHQDPATLSGGQRARVALLRALLAQPKALLLDEPFSRLDVALRDNFRQWVFSEVRALAIPVVQVTHDLQDVPADSSVLDMAQWSENYNKLR recorded_value="6.28 h"
chain="MSLPHCPKCNSEYTYEDNGMYICPECAYEWNDAEPAQESDELIVKDANGNLLADGDSVTIIKDLKVKGSSSMLKIGTKVKNIRLVEGDHNIDCKIDGFGPMKLKSEFVKKN [P0AFJ1]" recorded_value="5.91 h"

---

# EXPERIMENT_SUMMARY: total protein half-life in vivo (active degradation + dilution); higher = more stable protein
# APPLIED_CONDITIONS: E. coli NCM3722 delta-lon; growth: N-lim chemostat; doubling time 6 h
VALUE_TYPE: total protein half-life in vivo (h)

chain=MQDSILTTVVKDIDGEVTTLEKFAGNVLLIVNVASKCGLTPQYEQLENIQKAWVDRGFMVLGFPCNQFLEQEPGSDEEIKTYCTTTWGVTFPMFSKIEVNGEGRHPLYQKLIAAAPTAVAPEESGFYARMVSKGRAPLYPDDILWNFEKFLVGRDGKVIQRFSPDMTPEDPIVMESIKLALAK unit_info=h recorded_value=4.73
chain=MSQVQSGILPEHCRAAIWIEANVKGEVDALRAASKTFADKLATFEAKFPDAHLGAVVAFGNNTWRALSGGVGAEELKDFPGYGKGLAPTTQFDVLIHILSLRHDVNFSVAQAAMEAFGDCIEVKEEIHGFRWVEERDLSGFVDGTENPAGEETRREVAVIKDGVDAGGSYVFVQRWEHNLKQLNRMSVHDQEMVIGRTKEANEEIDGDERPETSHLTRVDLKEDGKGLKIVRQSLPYGTASGTHGLYFCAYCARLHNIEQQLLSMFGDTDGKRDAMLRFTKPVTGGYYFAPSLDKLMAL unit_info=h recorded_value=3.73
chain="MQSWYLLYCKRGQLQRAQEHLERQAVNCLAPMITLEKIVRGKRTAVSEPLFPNYLFVEFDPEVIHTTTINATRGVSHFVRFGASPAIVPSAVIHQLSVYKPKDIVDPATPYPGDKVIITEGAFEGFQAIFTEPDGEARSMLLLNLINKEIKHSVKNTEFRKL [P0AFW0]" unit_info=h recorded_value=3.93

---

Recorded total protein half-life in vivo values for a group of sequences are listed next.
# EXPERIMENT_SUMMARY: total protein half-life in vivo (active degradation + dilution); higher = more stable protein
# APPLIED_CONDITIONS: E. coli NCM3722 delta-smpB; growth: N-lim chemostat; doubling time 6 h
VALUE_TYPE: total protein half-life in vivo (h)

chain="MPWIQLKLNTTGANAEDLSDALMEAGAVSITFQDTHDTPVFEPLPGETRLWGDTDVIGLFDAETDMNDVVAILENHPLLGAGFAHKIEQLEDKDWEREWMDNFHPMRFGERLWICPSWRDVPDENAVNVMLDPGLAFGTGTHPTTSLCLQWLDSLDLTGKTVIDFGCGSGILAIAALKLGAAKAIGIDIDPQAIQASRDNAERNGVSDRLELYLPKDQPEEMKADVVVANILAGPLRELAPLISVLPVSGGLLGLSGILASQAESVCEAYADSFALDPVVEKEEWCRITGRKN [P0A8T1]" value_type="total protein half-life in vivo" recorded_value=3.91
chain="MSQVSTEFIPTRIAILTVSNRRGEEDDTSGHYLRDSAQEAGHHVVDKAIVKENRYAIRAQVSAWIASDDVQVVLITGGTGLTEGDQAPEALLPLFDREVEGFGEVFRMLSFEEIGTSTLQSRAVAGVANKTLIFAMPGSTKACRTAWENIIAPQLDARTRPCNFHPHLKK [P0AEZ9]" value_type="total protein half-life in vivo" recorded_value=4.7
chain=MLDNVLRIATRQSPLALWQAHYVKDKLMASHPGLVVELVPMVTRGDVILDTPLAKVGGKGLFVKELEVALLENRADIAVHSMKDVPVEFPQGLGLVTICEREDPRDAFVSNNYDSLDALPAGSIVGTSSLRRQCQLAERRPDLIIRSLRGNVGTRLSKLDNGEYDAIILAVAGLKRLGLESRIRAALPPEISLPAVGQGAVGIECRLDDSRTRELLAALNHHETALRVTAERAMNTRLEGGCQVPIGSYAELIDGEIWLRALVGAPDGSQIIRGERRGAPQDAEQMGISLAEELLNNGAREILAEVYNGDAPA value_type="total protein half-life in vivo" recorded_value=4.04

---

Recorded total protein half-life in vivo values for a group of sequences are listed next.
# EXPERIMENT_SUMMARY: total protein half-life in vivo (active degradation + dilution); higher = more stable protein
# APPLIED_CONDITIONS: E. coli NCM3722 delta-clpP delta-lon delta-hslV; growth: N-lim chemostat; doubling time 6 h
VALUE_TYPE: total protein half-life in vivo (h)

chain=MERFDAIIIGAGAAGMFCSALAGQAGRRVLLIDNGKKPGRKILMSGGGRCNFTNLYVEPGAYLSQNPHFCKSALARFTQWDFIDLVNKHGIAWHEKTLGQLFCDDSAQQIVDMLVDECEKGNVTFRLRSEVLSVAKDETGFTLDLNGMTVGCEKLVIATGGLSMPGLGASPFGYKIAEQFGLNVLPTRAGLVPFTLHKPLLEELQVLAGVAVPSVITAENGTVFRENLLFTHRGLSGPAVLQISSYWQPGEFVSINLLPDVDLETFLNEQRNAHPNQSLKNTLAVHLPKRLVERLQQLGQIPDVSLKQLNVRDQQALISTLTDWRVQPNGTEGYRTAEVTLGGVDTNELSSRTMEARKVPGLYFIGEVMDVTGWLGGYNFQWAWSSAWACAQDLIAAKSS recorded_value=5.02
chain=MRWQGRRESDNVEDRRNSSGGPSMGGPGFRLPSGKGGLILLIVVLVAGYYGVDLTGLMTGQPVSQQQSTRSISPNEDEAAKFTSVILATTEDTWGQQFEKMGKTYQQPKLVMYRGMTRTGCGAGQSIMGPFYCPADGTVYIDLSFYDDMKDKLGADGDFAQGYVIAHEVGHHVQKLLGIEPKVRQLQQNATQAEVNRLSVRMELQADCFAGVWGHSMQQQGVLETGDLEEALNAAQAIGDDRLQQQSQGRVVPDSFTHGTSQQRYSWFKRGFDSGDPAQCNTFGKSI recorded_value=5.3
chain=MKILVIGPSWVGDMMMSQSLYRTLQARYPQAIIDVMAPAWCRPLLSRMPEVNEAIPMPLGHGALEIGERRKLGHSLREKRYDRAYVLPNSFKSALVPFFAGIPHRTGWRGEMRYGLLNDVRVLDKEAWPLMVERYIALAYDKGIMRTAQDLPQPLLWPQLQVSEGEKSYTCNQFSLSSERPMIGFCPGAEFGPAKRWPHYHYAELAKQLIDEGYQVVLFGSAKDHEAGNEILAALNTEQQAWCRNLAGETQLDQAVILIAACKAIVTNDSGLMHVAAALNRPLVALYGPSSPDFTPPLSHKARVIRLITGYHKVRKGDAAEGYHQSLIDITPQRVLEELNALLLQEEA recorded_value=6.06
